All figures here come from patent US20250296971A1.

biological target: biotinylated extracellular domain of the human GIP receptor (bioGIPR) (human) (UniProt P48546); experiment: SPR single cycle kinetics, bioGIPR captured on chip; category A: t1/2 >15 min
Sequence (P48546 24-138 limits assumed): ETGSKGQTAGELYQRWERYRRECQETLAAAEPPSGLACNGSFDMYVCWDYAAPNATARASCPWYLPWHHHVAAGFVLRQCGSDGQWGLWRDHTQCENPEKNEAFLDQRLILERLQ
*1 amine or outer side, *2 acyl side, *3 side chain or, on linkers, in order; H or OH if unused. Bridges are numbered along the chain shown (N, C = ends). [ ]: non-standard residue; d: D form. The star is where a group is joined. DOTA(Ga) = O=C1CN2CCN3CCN(CC(=O)*)CCN(CC2)CC(=O)[O][Ga]([O]1)[O]C(=O)C3; dE(AGLU) = D-glutamic acid bearing 1-amino-1-deoxy-D-glucitol; Pro(trans-4-NH2) = O=C([C@@H]1C[C@@H](N[*:3])CN1[*:1])[*:2]; DOTA = O=C(O)CN1CCN(CC(=O)O)CCN(CC(=O)*)CCN(CC(=O)O)CC1; Trp(5-Cl) = N[C@@H](Cc1c[nH]c2ccc(Cl)cc12)C(=O)O; Pyridine(2,6-diCH2) = c1cc(C[*:1])nc(C[*:2])c1; APAc = 4-amino-1-carboxymethylpiperidine; Glutaryl = O=C(CCCC(=O)[*:2])[*:1]; AGLU = 1-amino-1-deoxy-D-glucitol; dDap(NTASEROL) = not defined here; Hyp = O=C(O)[C@@H]1C[C@@H](O)CN1; NTASEROL = not defined here; hLys = NCCCCC[C@H](N)C(=O)O; Api = NC1(C(=O)O)CCNCC1; Thp = NC1(C(=O)O)CCOCC1
observation_type: t1/2

Example binders with recorded t1/2:
{"binder": "Ac-DW[Trp(5-Cl)][Hyp][hLys][dL]C[Thp]LIC-NH2 (linker 7-11 via Pyridine(2,6-diCH2); SMILES CC[C@H](C)[C@@H]1NC(=O)[C@H](CC(C)C)NC(=O)C2(CCOCC2)NC(=O)[C@@H](NC(=O)[C@@H](CC(C)C)NC(=O)[C@H](CCCCCN)NC(=O)[C@@H]2C[C@@H](O)CN2C(=O)[C@H](Cc2c[nH]c3ccc(Cl)cc23)NC(=O)[C@H](Cc2c[nH]c3ccccc23)NC(=O)[C@H](CC(=O)O)NC(C)=O)CSCc2cccc(n2)CSC[C@@H](C(N)=O)NC1=O) [Ac-Asp-Trp-5Clw-Hyp-Hly-leu-[Cys(2Lut)-Thp-Leu-Ile-Cys]-NH2]", "t1/2": "> 15 min"}
{"binder": "{NTASEROL}-DW[Trp(5-Cl)][Pro(trans-4-NH2)]E[dL]C[Api](DOTA)LIC-{APAc-dDap(NTASEROL)-NH2} (linker 7-11 via Pyridine(2,6-diCH2); reading uncertain) [NTASEROL-Asp-Trp-5Clw-Tap-Glu-leu-[Cys(2Lut)-Apc(DOTA)-Leu-Ile-Cys]-APAc-dap(NTASEROL)-NH2]", "t1/2": "> 15 min"}

We now examine a further binder.
Recorded t1/2 (binder {AGLU-Glutaryl}-DW[Trp(5-Cl)][Pro(trans-4-NH2)]E[dL]C[Api](DOTA(Ga))LIC-{APAc-dE(AGLU)-NH2} (linker 7-11 via Pyridine(2,6-diCH2)) [AGLU-Glutar-Asp-Trp-5Clw-Tap-Glu-leu-[Cys(2Lut)-Apc(GaDOTA)-Leu-Ile-Cys]-APAc-glu(AGLU)-NH2] ): > 15 min
